Molecular target: UniProt P48736
Sequence (P48736 whole entry, species assumed): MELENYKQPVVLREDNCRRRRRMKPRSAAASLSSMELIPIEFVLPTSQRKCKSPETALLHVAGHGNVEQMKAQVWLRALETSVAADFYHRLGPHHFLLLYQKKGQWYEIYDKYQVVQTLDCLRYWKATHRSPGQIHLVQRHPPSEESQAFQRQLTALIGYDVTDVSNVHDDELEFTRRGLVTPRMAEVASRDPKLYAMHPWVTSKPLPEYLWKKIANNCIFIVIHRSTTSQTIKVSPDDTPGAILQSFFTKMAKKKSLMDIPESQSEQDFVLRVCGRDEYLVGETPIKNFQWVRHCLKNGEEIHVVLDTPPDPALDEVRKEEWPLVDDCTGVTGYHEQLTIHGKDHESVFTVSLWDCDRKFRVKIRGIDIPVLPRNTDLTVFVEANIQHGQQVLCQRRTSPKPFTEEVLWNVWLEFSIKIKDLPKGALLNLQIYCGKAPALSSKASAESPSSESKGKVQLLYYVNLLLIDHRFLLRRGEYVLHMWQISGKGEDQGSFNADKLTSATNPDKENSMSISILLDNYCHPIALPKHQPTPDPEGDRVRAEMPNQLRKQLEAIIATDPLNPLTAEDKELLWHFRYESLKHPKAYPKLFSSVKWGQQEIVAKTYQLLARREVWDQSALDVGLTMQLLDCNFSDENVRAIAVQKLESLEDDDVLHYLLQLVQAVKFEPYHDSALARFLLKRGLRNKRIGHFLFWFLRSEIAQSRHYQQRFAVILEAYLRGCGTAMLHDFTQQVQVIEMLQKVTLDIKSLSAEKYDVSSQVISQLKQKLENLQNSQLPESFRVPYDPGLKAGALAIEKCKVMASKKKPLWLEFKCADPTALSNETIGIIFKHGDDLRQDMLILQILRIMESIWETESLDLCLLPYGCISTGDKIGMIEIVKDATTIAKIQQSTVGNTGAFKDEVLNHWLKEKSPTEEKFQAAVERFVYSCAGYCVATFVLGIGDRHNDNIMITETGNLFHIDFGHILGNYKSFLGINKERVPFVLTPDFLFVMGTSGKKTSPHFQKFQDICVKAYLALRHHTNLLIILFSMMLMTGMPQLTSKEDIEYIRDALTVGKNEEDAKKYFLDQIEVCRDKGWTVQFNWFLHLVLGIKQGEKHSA
endpoint.name: IC50

[Q] Consider the compound CC(C)Oc1ccc(-c2nn(C(C)c3oc4cccc(F)c4c(=O)c3-c3cccc(F)c3)c3ncnc(N)c23)cc1F (single isomer, unassigned; (+)) . State its measured IC50.
[A] < 40 nM

---

Target: PI3K Delta (Homo sapiens, UniProt O00329)
Sequence (O00329 whole entry, species assumed): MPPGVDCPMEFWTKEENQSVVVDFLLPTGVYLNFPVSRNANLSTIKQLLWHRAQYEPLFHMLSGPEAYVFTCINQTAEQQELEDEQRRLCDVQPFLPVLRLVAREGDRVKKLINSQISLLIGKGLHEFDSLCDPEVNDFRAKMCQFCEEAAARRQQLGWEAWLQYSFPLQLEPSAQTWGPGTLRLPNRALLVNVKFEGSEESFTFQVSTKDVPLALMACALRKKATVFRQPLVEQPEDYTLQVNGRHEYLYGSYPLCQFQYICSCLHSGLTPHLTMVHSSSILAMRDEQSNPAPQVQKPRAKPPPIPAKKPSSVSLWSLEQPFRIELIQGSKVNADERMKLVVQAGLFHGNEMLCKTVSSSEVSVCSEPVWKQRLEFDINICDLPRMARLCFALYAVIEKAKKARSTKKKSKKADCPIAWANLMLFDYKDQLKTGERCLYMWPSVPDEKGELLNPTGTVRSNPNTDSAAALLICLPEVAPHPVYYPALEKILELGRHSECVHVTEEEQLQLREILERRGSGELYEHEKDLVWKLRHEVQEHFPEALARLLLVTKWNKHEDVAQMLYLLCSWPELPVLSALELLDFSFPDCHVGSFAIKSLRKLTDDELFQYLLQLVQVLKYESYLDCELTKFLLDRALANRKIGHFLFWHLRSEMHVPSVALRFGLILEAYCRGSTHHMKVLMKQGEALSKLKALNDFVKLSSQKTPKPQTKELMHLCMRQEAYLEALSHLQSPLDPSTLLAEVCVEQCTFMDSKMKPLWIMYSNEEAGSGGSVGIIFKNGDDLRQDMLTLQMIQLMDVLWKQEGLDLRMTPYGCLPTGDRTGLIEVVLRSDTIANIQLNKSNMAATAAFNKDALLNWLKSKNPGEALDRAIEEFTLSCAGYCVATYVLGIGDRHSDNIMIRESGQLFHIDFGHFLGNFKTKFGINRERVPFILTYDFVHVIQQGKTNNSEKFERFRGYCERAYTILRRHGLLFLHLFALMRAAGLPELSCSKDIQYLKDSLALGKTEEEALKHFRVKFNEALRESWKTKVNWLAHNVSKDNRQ
Sequence (P27986 whole entry partner, species assumed): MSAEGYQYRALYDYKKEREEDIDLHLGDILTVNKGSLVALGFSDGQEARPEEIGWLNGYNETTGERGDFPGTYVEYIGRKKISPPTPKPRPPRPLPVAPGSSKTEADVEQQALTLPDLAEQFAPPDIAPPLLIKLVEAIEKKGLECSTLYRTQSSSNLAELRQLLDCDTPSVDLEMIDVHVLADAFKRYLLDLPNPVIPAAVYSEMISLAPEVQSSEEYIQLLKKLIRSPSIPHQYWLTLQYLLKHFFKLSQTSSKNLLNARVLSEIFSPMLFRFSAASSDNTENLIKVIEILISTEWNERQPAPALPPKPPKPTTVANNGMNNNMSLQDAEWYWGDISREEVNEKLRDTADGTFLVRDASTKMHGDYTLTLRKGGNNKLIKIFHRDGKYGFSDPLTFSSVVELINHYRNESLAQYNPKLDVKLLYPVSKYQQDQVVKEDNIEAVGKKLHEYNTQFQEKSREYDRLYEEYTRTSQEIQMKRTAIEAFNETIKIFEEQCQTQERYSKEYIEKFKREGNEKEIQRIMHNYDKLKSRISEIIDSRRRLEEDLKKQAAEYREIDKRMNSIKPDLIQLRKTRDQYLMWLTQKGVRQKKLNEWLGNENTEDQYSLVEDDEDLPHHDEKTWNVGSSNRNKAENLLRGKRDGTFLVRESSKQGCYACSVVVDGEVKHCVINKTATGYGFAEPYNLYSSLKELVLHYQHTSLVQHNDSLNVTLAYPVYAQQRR
Experiment: PI3K Delta enzyme inhibition
pIC50: −log10 of the molar value.
endpoint.name: pIC50

[Q] Consider the compound CC(C)Oc1ccc(-c2nn(C(C)c3oc4cccc(F)c4c(=O)c3-c3cccc(F)c3)c3ncnc(N)c23)cc1F (single isomer, unassigned; (+)) . State its measured pIC50.
[A] > 7.40
